# Target System: Y5 (Homo sapiens)
# Construct: host or cells: U2OS
# Sequence (Q15761 whole entry): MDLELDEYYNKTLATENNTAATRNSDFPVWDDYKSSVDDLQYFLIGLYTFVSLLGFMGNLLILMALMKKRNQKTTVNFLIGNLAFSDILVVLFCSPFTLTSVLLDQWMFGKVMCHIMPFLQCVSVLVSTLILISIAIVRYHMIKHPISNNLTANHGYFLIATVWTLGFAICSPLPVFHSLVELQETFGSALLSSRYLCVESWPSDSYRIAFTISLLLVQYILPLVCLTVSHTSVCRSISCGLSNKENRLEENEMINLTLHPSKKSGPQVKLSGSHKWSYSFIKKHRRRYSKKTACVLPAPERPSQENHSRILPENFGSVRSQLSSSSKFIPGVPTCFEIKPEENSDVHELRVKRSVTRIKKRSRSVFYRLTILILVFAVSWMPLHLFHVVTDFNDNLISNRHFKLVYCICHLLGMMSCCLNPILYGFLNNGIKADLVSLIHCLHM
# Experiment Description: Beta-lactamase reporter gene assay (FRET), Y5
# Type: cell-based
pEC50: −log10 of the molar value. No end group written: not given here.
Property: pEC50

Q: Look up pEC50 of SRAHQHSMETRTPDINPAWYTGRGIRPVGRF-NH2 [PrRP31, prolactin-releasing peptide 31, reference compound] and report it.
Result: < 5.00

----------
# Target System: ORL-1 (Homo sapiens)
# Construct: host or cells: U2OS
# Sequence (P41146 whole entry): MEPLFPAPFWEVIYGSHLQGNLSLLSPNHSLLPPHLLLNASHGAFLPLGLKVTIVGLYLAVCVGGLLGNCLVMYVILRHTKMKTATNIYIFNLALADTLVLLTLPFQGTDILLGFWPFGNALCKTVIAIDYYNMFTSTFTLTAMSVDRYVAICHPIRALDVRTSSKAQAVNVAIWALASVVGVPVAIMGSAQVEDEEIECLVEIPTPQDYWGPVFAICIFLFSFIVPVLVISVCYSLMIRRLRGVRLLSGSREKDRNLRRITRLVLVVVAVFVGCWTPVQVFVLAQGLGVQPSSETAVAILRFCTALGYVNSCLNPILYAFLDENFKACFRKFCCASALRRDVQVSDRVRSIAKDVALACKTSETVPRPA
# Experiment Description: Beta-lactamase reporter gene assay (FRET), ORL-1
# Assay type: cell-based
# Measurement Context: β-lactamase assay, agonist mode, U2OS cells; mean ± SEM, 2–3 independent experiments in duplicates
No end group written: not given here.
Property: EC50

Q: Please supply the value of reported EC50 for the item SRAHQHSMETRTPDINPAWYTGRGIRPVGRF-NH2 [PrRP31, prolactin-releasing peptide 31, reference compound]
Result: > 10 µM

----------
# Target System: KOR (Homo sapiens)
# Construct: host or cells: CHO-K1
# Sequence (P41145 whole entry): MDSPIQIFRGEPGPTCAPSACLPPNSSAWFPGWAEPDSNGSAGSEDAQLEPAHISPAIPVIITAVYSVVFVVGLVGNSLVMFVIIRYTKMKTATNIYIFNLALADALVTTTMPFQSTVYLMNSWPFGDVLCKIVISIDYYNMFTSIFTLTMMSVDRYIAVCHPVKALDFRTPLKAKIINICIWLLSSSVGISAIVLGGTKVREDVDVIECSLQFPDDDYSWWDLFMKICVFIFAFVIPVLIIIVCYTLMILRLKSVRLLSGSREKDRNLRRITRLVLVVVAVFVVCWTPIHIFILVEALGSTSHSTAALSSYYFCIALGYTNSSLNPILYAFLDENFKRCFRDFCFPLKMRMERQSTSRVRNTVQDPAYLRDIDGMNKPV
# Experiment Description: cell-based
No end group written: not given here.
Property: EC50

Q: Given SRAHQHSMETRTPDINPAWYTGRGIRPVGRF-NH2 [PrRP31, prolactin-releasing peptide 31, reference compound] , respond with its EC50.
Result: > 10 µM

Origin of the recorded values: paper PMC8396344
